- tgt: T1, mucin domain-deleted Sudan GP (GPdMuc) (Sudan virus (SUDV), UniProt Q7T9D9 33-632)
- T1 construct: also called Sudan GPdMuc; GP(S)dMuc
- assay_text: BLI competition on Sudan GPdMuc (lower table); competitor 15H10

binder	% inhibition of binding
antibody 285S (antibody, V domains shown) VH: QVQLVQSGAEVKKPGSSVKVSCKASGGTFSTYAITWVRQAPGQGLEWMGRIIPILRVANYAQKFQGRVTITADSSTSTAYMELSSLRSEDTAVYYCANLLAYCGGDCRSDYWGQGTLVTVSS VL: EIVLTQSPGTLSLSPGERATLSCRASQSVKNSYLAWYHQKPGQAPRLLIYGASSRATGIPDRFSGSGSGTDFTLTISRLEPEDFAVYYCQQYGSSLWTFGQGTKVDVK	7.47%
antibody 405S (antibody, V domains shown) VH: EVQLVESGGGLIQPGGSLRLSCAASGFTVSSHYMSWVRQAPGKGLEWVSGIYSGGRTHYADSVKGRFTISRDNSKNTLYLQMNSLRADDTAVYSCARGTLLYLYGMDVWGQGTTVTVSS VL: QSVLTQPPSVSAAPGQRVTISCTGSSSNIGAGYNVHWYQQLPGAAPKLLIYGNTNRPSGVPDRFSGSKSGTSASLAITGLQAEDEADYYCQSFDSSLSGVFGTGTKVTVL	11.1%
antibody 102S (antibody, V domains shown) VH: EVQLVESGGGLVQPGGSLRLSCSASGFTFHSYDMNWARQAPGKGLEWVSEISSSGQSKNYADSVRGRFTISRDNAKNSLYLQINSLRSEDTAVYYCARVGFVAKFGSDFSITHGTYYLDYWGQGTLVTVSS VL: QLVLTQSPATLSLSPGERATLSCRASQSVSNYLAWYQQKPGQAPRLLIYDASNRAPGVPARFSGSGSGTDFSLTISSLEPEDFAVYYCLQRSNWPPWTFGQGTKVEIK	11.9%
antibody 335S (antibody, V domains shown) VH: EVQLVESGGGVVQPGRSLRLSCAASGFSFSNYAMHWVRQAPGKGLEWVAVTWYDGSSKYHADSVKGRFTISRDNSKNTLYLQMNSLRAEDTAVYYCARWGMGIVASPGNVLNYYYFMDVWGQGTTVIVSS VL: SYELTQPPSVSVSPGQTARITCSGNPLPKKHTYWYQQKPGQAPVLMIYKDSERPSRIPERFSGSSSGTTVTLTISGVQAEDEADYYCQSADSTGIVVFGGGTKLTVL	8.78%
antibody 578S (antibody, V domains shown) VH: EVQLVESGGGVVQPGRSLRLSCAASGFTFSSYELHWVRQAPGKGLEWVAVISYDGSSKYYADSLKGRFTISRDNSKNTLSLQMNSLRAEDTAMYYCVRQSEAYCSDGRCDWRRALDIWGQGTMVTVSP VL: DIQMTQSPSSLSASVGDRVTITCQASQDIKNYLNWYQQKPGKAPKLLIYDVSKLETGVPSRFSGSGSGTDFSFTISSLQPEDIATYYCQQYDNLPSYTFGQGTKLEIK	7.51%
antibody 382S (antibody, V domains shown) VH: QVQLVQSGAEVKKPGSSVKVSCKASGGTFSNYGISWVRQAPGQGLEWMGRNIPIIGIANYAQKFQDRVTITADKSTSTVFMELRSLRYEDTAVYYCARDPLAARRGNWFDPWGQGTLVTVSS VL: DIQMTQSPSTLSASVGDRVTITCRASQSVSSWLAWYQQKPGKAPKLLIYDASTLQSGVPSRFSGSGSGTEFTLTISSLQPDDFATYYCQQYNSYSYTFGQGTKLEIK	17.6%
